Test system: Listeria monocytogenes
Test: MIC/MBC by broth dilution, pure ILs
Format: cell-based
Conditions: 24 h, 10^6 CFU/mL
measured-parameter: MBC (µg/mL)

molecule: CCCCCCCCCCCCCCCCCC[n+]1ccn(C)c1.COC(=O)c1cc(C(=O)OC)cc(S(=O)(=O)[O-])c1 [C18mimDMSIP]
test-value: 304.4

molecule: CCCCCCCCCCCCCCCC[n+]1ccn(C)c1.COC(=O)c1cc(C(=O)OC)cc(S(=O)(=O)[O-])c1 [C16mimDMSIP]
test-value: 72.60

molecule: CCCCCCCCCC[n+]1ccn(C)c1.COC(=O)c1cc(C(=O)OC)cc(S(=O)(=O)[O-])c1 [C10mimDMSIP]
test-value: 496.62

molecule: CCCCCCCCCCCCCC[n+]1ccn(C)c1.COC(=O)c1cc(C(=O)OC)cc(S(=O)(=O)[O-])c1 [C14mimDMSIP]
test-value: 69.09

* * *

Test system: HDF cells
Test: Direct cytotoxicity test of IL powders, Alamar blue assay
Assay type: cell-based, human
Settings: Homo sapiens, 24 h of incubation, n = 3, mean ± SD

smiles-repr: CCCCCCCCCCn1cc[n+](C)c1.F[B-](F)(F)F
IC50 [µg/mL]: 4.18

smiles-repr: CCCCCCCCCCCCCC[n+]1ccn(C)c1.F[B-](F)(F)F
IC50 [µg/mL]: 3.78

smiles-repr: CCCCCCCCCCCCCCCCCCCC[n+]1ccn(C)c1.F[B-](F)(F)F
IC50 [µg/mL]: 2.7

smiles-repr: CCCCCCCCCCCCCCCC[n+]1ccn(C)c1.F[B-](F)(F)F
IC50 [µg/mL]: 8.26

smiles-repr: CCCCCCCCCCCCCCCCCC[n+]1ccn(C)c1.F[B-](F)(F)F
IC50 [µg/mL]: 4.57

smiles-repr: CCCCCCCCCCCCn1cc[n+](C)c1.F[B-](F)(F)F
IC50 [µg/mL]: 4.34

smiles-repr: CCCCCCCCC[n+]1ccn(C)c1.F[B-](F)(F)F
IC50 [µg/mL]: 5.14

* * *

Experiment: Thermogravimetric analysis (TGA), thermal stability
Type: physicochemical
Conditions: neat ILs; single-step degradation; 10 °C/min, nitrogen

compound: CCCCCCCCCCCCCCCCCCCC[n+]1ccn(C)c1.F[B-](F)(F)F [C20mimBF4]
Td, maximum degradation temperature: 427.9 °C
//
compound: CCCCCCCCCCCCCCCCCCCCn1cc[n+](C)c1.COC(=O)c1cc(C(=O)OC)cc(S(=O)(=O)[O-])c1 [C20mimDMSIP]
Td, maximum degradation temperature: 412.2 °C
//
compound: CCCCCCCCCCn1cc[n+](C)c1.F[B-](F)(F)F [C10mimBF4]
Td, maximum degradation temperature: 417.2 °C
//
compound: CCCCCCCCC[n+]1ccn(C)c1.COC(=O)c1cc(C(=O)OC)cc(S(=O)(=O)[O-])c1 [C9mimDMSIP]
Td, maximum degradation temperature: 389.7 °C

* * *

Tested on: Escherichia coli
Assay: MIC/MBC by broth dilution, pure ILs
Format: cell-based
Conditions: 24 h, NI = no inhibition at IL maximum concentration used (1000 µM), read-out: MBC
measured-parameter: log10(MBC) (log10 of the value in µM)

compound: CCCCCCCCCCCCCCCCCC[n+]1ccn(C)c1.COC(=O)c1cc(C(=O)OC)cc(S(=O)(=O)[O-])c1 [C18mimDMSIP]
log10(MBC): 3.00
//
compound: CCCCCCCCCCCCCCCCCC[n+]1ccn(C)c1.F[B-](F)(F)F [C18mimBF4]
log10(MBC): 2.40
//
compound: CCCCCCCCCC[n+]1ccn(C)c1.COC(=O)c1cc(C(=O)OC)cc(S(=O)(=O)[O-])c1 [C10mimDMSIP]
log10(MBC): 2.70
//
compound: CCCCCCCCCCn1cc[n+](C)c1.F[B-](F)(F)F [C10mimBF4]
log10(MBC): 2.70
//
compound: CCCCCCCCCCCCCC[n+]1ccn(C)c1.F[B-](F)(F)F [C14mimBF4]
log10(MBC): 1.40
//
compound: CCCCCCCCCCCCCCCC[n+]1ccn(C)c1.COC(=O)c1cc(C(=O)OC)cc(S(=O)(=O)[O-])c1 [C16mimDMSIP]
log10(MBC): 2.10
//
compound: CCCCCCCCCCCCCCCC[n+]1ccn(C)c1.F[B-](F)(F)F [C16mimBF4]
log10(MBC): 2.10
//
compound: CCCCCCCCC[n+]1ccn(C)c1.F[B-](F)(F)F [C9mimBF4]
log10(MBC): 3.00
//
compound: CCCCCCCCCCCCCC[n+]1ccn(C)c1.COC(=O)c1cc(C(=O)OC)cc(S(=O)(=O)[O-])c1 [C14mimDMSIP]
log10(MBC): 1.70
//
compound: CCCCCCCCCCCCn1cc[n+](C)c1.F[B-](F)(F)F [C12mimBF4]
log10(MBC): 2.40

Every entry's value here was drawn from paper PMC11125126.
